# credit: patent US20220135701A1

- Measurement Target: T1, human MerTK (human, UniProt Q12866 26-499)
- T1 construct: also called HuMER
- T1 sequence: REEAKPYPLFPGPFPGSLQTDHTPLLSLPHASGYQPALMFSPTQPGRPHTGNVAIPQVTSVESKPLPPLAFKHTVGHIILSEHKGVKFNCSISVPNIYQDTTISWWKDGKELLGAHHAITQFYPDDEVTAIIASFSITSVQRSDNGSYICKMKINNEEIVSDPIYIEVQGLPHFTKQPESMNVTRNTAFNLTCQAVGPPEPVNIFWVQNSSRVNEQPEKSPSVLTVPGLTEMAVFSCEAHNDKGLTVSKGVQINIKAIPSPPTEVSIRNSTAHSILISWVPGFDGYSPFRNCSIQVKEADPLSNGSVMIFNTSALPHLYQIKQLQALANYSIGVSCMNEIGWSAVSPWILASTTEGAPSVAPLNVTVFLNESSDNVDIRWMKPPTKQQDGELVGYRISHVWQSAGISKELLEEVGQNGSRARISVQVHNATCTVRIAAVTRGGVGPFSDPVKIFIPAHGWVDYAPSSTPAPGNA
- Assay Details: SPR BIAcore T200, Ab captured, 37C
- Description: Each humanized mutation variant was subject to BIAcore analysis to determine the important rabbit residues for binding and stability. […] Association rates (kₒₙ) and dissociation rates (koff) were calculated using a simple one-to-one Langmuir binding model (BIAcore T200 evaluation software version 2.0). The equilibrium dissociation constant (KD) was calculated as the ratio koff/kₒₙ.
Property Name: pKd
The read-out pKd is expressed as -log10 of concentration in moles per litre.

## Input Return reported pKd; argument: h13B4.V1 HC P105R (antibody, name in Kabat numbering, V domains shown, Framework variant of h13B4.v1 (human IgG1)) VH: EQQLVESGEGLVQPGGSLRLSCAVSGFSLSSYAMGWVRQAPGKGLEWIGIINSYGNTYYANWAKGRFTISRDSSKNTVYLQMGSLRAEDMAVYFCARDPGVSSNLWGRGTLVTVSS VL: DVQMTQSPSTLSASVGDRVTITCQASQNIYSGLAWYQQKPGKPPKLLIYGASKLASGVPSRFSGSGSGTEFTLTISSLQPDDFATYYCQATYYSSNSVAFGGGTKVEIK
## Output 8.38

## Input Return reported pKd; argument: h9E3.FN.V1 HC G49S (antibody, human IgG1, name in Kabat numbering, V domains shown, Framework variant of h9E3.FN.v1 (human IgG1)) VH: EQQLVESGGGLIQPGGSLRLSCAVSGFSLSSNAMSWVRQAPGKGLEWISIISSSGSTYSASWAKGRFTISKDSSKNTMYLQMNSLRAEDTAVYFCARVGFFVGYGAYDYGIIHRLDLWGQGTLVTVSS VL: DAQLTQSPSTLSASVGDRVTITCQSSKSIYNNNWLSWYQQKPGKPPKLLIYDASDLASGVPSRFSGSGSGTEFTLTISSLQPDDFATYYCAGGYSGDSDYAFGGGTKVEIK
## Output 8.25

## Input Return reported pKd; argument: h9E3.FN.V1 HC S73N (antibody, human IgG1, name in Kabat numbering, V domains shown, Framework variant of h9E3.FN.v1 (human IgG1)) VH: EQQLVESGGGLIQPGGSLRLSCAVSGFSLSSNAMSWVRQAPGKGLEWIGIISSSGSTYSASWAKGRFTISKDNSKNTMYLQMNSLRAEDTAVYFCARVGFFVGYGAYDYGIIHRLDLWGQGTLVTVSS VL: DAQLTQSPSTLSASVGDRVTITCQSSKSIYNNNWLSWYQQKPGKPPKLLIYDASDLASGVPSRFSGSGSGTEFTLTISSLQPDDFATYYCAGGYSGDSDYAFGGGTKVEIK
## Output 7.91

## Input Return reported pKd; argument: h13B4.V1 HC G49S (antibody, human IgG1, name in Kabat numbering, V domains shown, Framework variant of h13B4.v1 (human IgG1)) VH: EQQLVESGEGLVQPGGSLRLSCAVSGFSLSSYAMGWVRQAPGKGLEWISIINSYGNTYYANWAKGRFTISRDSSKNTVYLQMGSLRAEDMAVYFCARDPGVSSNLWGPGTLVTVSS VL: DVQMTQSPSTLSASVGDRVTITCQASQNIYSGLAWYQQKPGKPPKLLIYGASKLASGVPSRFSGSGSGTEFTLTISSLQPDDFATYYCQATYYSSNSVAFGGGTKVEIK
## Output 7.29

## Input Return reported pKd; argument: h9E3.FN.v1 (antibody, V domains shown, also called h9E3.FN.V1 (Parent); 9E3.FN Humanized mAb V1) VH: EQQLVESGGGLIQPGGSLRLSCAVSGFSLSSNAMSWVRQAPGKGLEWIGIISSSGSTYSASWAKGRFTISKDSSKNTMYLQMNSLRAEDTAVYFCARVGFFVGYGAYDYGIIHRLDLWGQGTLVTVSS VL: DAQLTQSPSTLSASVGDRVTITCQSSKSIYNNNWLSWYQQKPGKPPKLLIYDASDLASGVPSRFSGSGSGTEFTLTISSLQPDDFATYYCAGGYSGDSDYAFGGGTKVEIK
## Output 7.91
